These data points were gathered from patent US20090069319A1.

Item-by-item account of fold induction at 20 µM
Experiment: Functional Dkk1-LRP5-TCF-Luciferase Assay in U2OS Cells (table columns: A=MAX FOLD Induction/DMSO CONTROL; B=fold induction @ 2.0 uM; C=fold induction @ 20.0 uM)
Format: cell-based, Human
Settings: Homo sapiens, U2OS; 20.0 uM compound
Lab note: write the figure by itself, no unit.

>  <COMPOUND>
c1ccc2cc(-c3ccnc4c3ncn4CCCn3ccnc3)ccc2c1

>  <fold induction at 20 µM>
3.31

$$$$
>  <COMPOUND>
O=[N+]([O-])c1ccc(O)cc1-c1nc2c(-c3ccc4ccccc4c3)ccnc2n1C1CCNCC1

>  <fold induction at 20 µM>
0.98

$$$$
>  <COMPOUND>
CC(C)NC(=O)N1CCC(n2c(=O)[nH]c3c(-c4ccc5ccccc5c4)ccnc32)CC1

>  <fold induction at 20 µM>
1.1

$$$$
>  <COMPOUND>
CCc1nc2cc(-c3ccc4ccccc4c3)cnc2n1C1CCNCC1

>  <fold induction at 20 µM>
0.78

$$$$
>  <COMPOUND>
c1ccc2cc(-c3ccnc4c3ncn4[C@@H]3CCNC3)ccc2c1

>  <fold induction at 20 µM>
1.65

$$$$
>  <COMPOUND>
CN(C)S(=O)(=O)N1CCC(n2cnc3c(-c4ccc5ccccc5c4)ccnc32)CC1

>  <fold induction at 20 µM>
1.46

$$$$

// next entry
(Q) Recorded fold induction at 20 µM for `O=C(N1CCOCC1)N1CCC(n2c(=O)[nH]c3c(-c4ccc5ccccc5c4)ccnc32)CC1` , please?
(A) 1.02
